Literature Ki values, system: 5-hydroxytryptamine receptor 6 (Homo sapiens, UniProt P50406).

Entry O=S(=O)(c1ccccc1Cl)c1n[nH]c2ccc(OC3CCNCC3)cc12 ; Ki = > 45 nM

Entry CCCN1CC[C@@H](c2ccc(NS(=O)(=O)c3ccc(-c4csc(C)n4)s3)cc2)C1 ; Ki = 1 to 10 nM

Entry N=C(N)NN=Cc1c(-c2ccc(F)cc2)[nH]c2ccccc12 ; Ki = 29 nM

Entry O=c1n(C2=CCNCC2)c2ccccc2n1S(=O)(=O)c1c(Cl)nc2ccccn12 ; Ki = 19 nM

Entry Cc1nc(S(=O)(=O)n2c(=O)n(C3=CCNCC3)c3ccccc32)cn1C ; Ki = 133 nM

Entry NCCn1c(=O)n(S(=O)(=O)c2ccc(Br)s2)c2ccccc21 ; Ki = 26 nM

Entry O=S(=O)(c1ccc2ccccc2c1)n1cc(C(F)F)c2c(N3CCNCC3)cccc21 ; Ki = 0.5 nM

Entry O=S(=O)(c1cccc2ccccc12)c1nn(Cc2cccc(Cl)c2)c2c(OCCCN3CCCCC3)cccc12 ; Ki = 26 to 35 nM

Entry O=S(=O)(c1ccc(Cl)cc1)c1n[nH]c2ccc(NC3CCNCC3)cc12 ; Ki = 0.01 to 10 nM

Entry CCCN1CC(c2ccc(NS(=O)(=O)c3cc(C)ccc3C)cc2)C1 ; Ki = 10 to 50 nM

Entry NCCCCOc1ccc2[nH]nc(S(=O)(=O)c3cccc4ccccc34)c2c1 ; Ki = 0.01 to 10 nM

Entry CN(C)C1CCc2oc3ccc(NC(=O)c4ccncc4)cc3c2C1 (stereo not drawn) ; Ki = > 5000 nM

Entry O=c1n(C2=CCNCC2)c2ccccc2n1S(=O)(=O)c1ccc(Cl)s1 ; Ki = 5 nM

Entry CCNCCOc1cc(F)cc2c(S(=O)(=O)c3cccc4ccccc34)nn(Cc3cccc(Cl)c3)c12 ; Ki = > 45 nM

Entry CCCN1CC[C@@H](c2ccc(NS(=O)(=O)c3ccc(Cl)s3)cc2)C1 ; Ki = 1 to 10 nM

Entry COc1cccc(S(=O)(=O)c2n[nH]c3ccc(OC4CCNCC4)cc23)c1 ; Ki = 0.01 to 10 nM

Entry O=S(=O)(c1cccc(F)c1)n1cc(C(F)F)c2c(N3CCNCC3)cc(Br)cc21 ; Ki = 1.9 nM

Entry O=S(=O)(c1ccccc1)c1n[nH]c2ccc(OCCN3CCCCC3)cc12 ; Ki = 26 to 35 nM
